Reference source: the RNAGym collection of RNA variant scans (doi:10.7554/elife.80360)

B1: HDV Ribozyme (parent)
chain: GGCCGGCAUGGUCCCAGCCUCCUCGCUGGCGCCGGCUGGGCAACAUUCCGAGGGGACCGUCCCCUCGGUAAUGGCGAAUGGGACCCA

variants of: B1; assay: self-cleavage, relative activity (ratio to wild type); higher = more cleavage; co-transcriptional
measured property: self-cleavage

* C15G G34A | 0.237
* C7U C14A | 0.516
* C64A U72A | 0.491
* G39A U60A | 0.268
* C30G G31U | 0.126
* U46C G81C | 0.302
* A51G C61U | 0.889
* C32A G40U | 0.22
* C4G G81C | 0.0767
* G53A C63G | 1.01
* G5C C18A | 0.0639
* C18U C22G | 0.0462
* C30G A71C | 0.0554
* G2A A56G | 0.242
* G2A U12C | 0.0627
* C4G U72G | 0.0519
* A71U C86A | 0.729
* G55C G74U | 0.652
* C30G U37A | 0.0462
* G17C C41U | 0.0449
* G2A A45C | 0.0723
* G29A A42C | 0.104
